Give measured Labeled Protein (%) L94C 1 h for each item. Keep answers brief.
measured-target: BRD4(1)^L94C (Homo sapiens, UniProt O60885, L94C)
Construct: Characterization of His6-BRD4(1)L94C; made in house; host or cells: E. coli BL21 (DE3)
test-protocol: Protein LCMS labeling assay 1
Assay type: binding
settings: 50 μM compound, 10 µM protein, 37 °C, 1 h; mean of three ± s.e.m.; ND = not detectable
Respond numerically; units are % and should not be typed.

Input line: # lookup: Labeled Protein (%) L94C 1 h of C=CC(=O)Nc1cc(C)no1
Output line: 21

Input line: Similarly, C=CC(=O)Nc1onc(C)c1-c1ccccc1 ?
Output line: 70

Input line: Similarly, C#CCOc1ccc(-c2c(C)noc2NC(=O)/C=C/CN(C)C)cc1 ?
Output line: 49

Input line: Similarly, C#CC(=O)c1cc(C)on1 ?
Output line: 60

Input line: Similarly, C=CC(=O)c1onc(C)c1-c1ccccc1 ?
Output line: 100

Input line: Similarly, C#CC(=O)Nc1cc(C)no1 ?
Output line: 3.4

Input line: Similarly, C#CC(=O)c1cc(C)no1 ?
Output line: 44

Input line: Similarly, C=CC(=O)c1cc(C)on1 ?
Output line: 100.0

Input line: Similarly, Cc1cc(NC(=O)/C=C/CN(C)C)on1 ?
Output line: 16

Input line: Similarly, C=CC(=O)c1cc(C)no1 ?
Output line: 100

Input line: Similarly, C#Cc1ccc(-c2c(C)noc2NC(=O)/C=C/CN(C)C)cc1 ?
Output line: 59

Input line: Similarly, C=CC(=O)Nc1cc(C)on1 ?
Output line: 7.6

Input line: Similarly, Cc1noc(NC(=O)CCl)c1-c1ccccc1 ?
Output line: 5.9

Input line: Similarly, Cc1cc(NC(=O)CCl)on1 ?
Output line: 10

Input line: Similarly, C#CCOc1ccc(-c2c(C)noc2NC(=O)C=C)cc1 ?
Output line: 96

Input line: Similarly, Cc1noc(NC(=O)/C=C/CN(C)C)c1-c1ccccc1 ?
Output line: 27

Input line: Similarly, C=CC(=O)Nc1ccc(N2CCCC2=O)c(OC)c1 ?
Output line: 17

----------
measured-target: BRD4(1)^L94C (Homo sapiens, UniProt O60885, L94C)
Construct: Characterization of His6-BRD4(1)L94C; made in house; host or cells: E. coli BL21 (DE3)
test-protocol: AlphaScreen H4_1–20(KAc)4 peptide displacement
Assay type: binding
settings: IC50, prevention of H4_1–20(KAc)4 peptide binding to BRD4(1)^L94C; equals the 4 h value of Figure S13
Method: Under these conditions, all three fragments displaced the peptide from BRD4(1)^L94C, which is consistent with the fragments binding to BRD4(1)^L94C in the expected location (Table 2). […] The longer the mutant protein and electrophile are incubated together, the more time there is for a covalent interaction to occur. […] Dose response AlphaScreen™ The peptide (Table S17) was supplied at >95% purity by GenScript and was stored as 1 mM stocks in […] Table S17. […]
measured-attribute: IC50 (nM)
Respond numerically; units are nM and should not be typed.

Input line: # lookup: IC50 of Cc1noc(C)c1-c1cc(O)cc(C(O)c2cccnc2)c1 (stereo not shown) [OXFBD04 (3), reference compound]
Output line: 80
